Reference for the values: the supplement of paper PMC10567573

# assay-name: protein stability index of a GFP-peptide fusion (GPS, HEK-293T) (PSI 1-6); higher = more stable;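 also: 24-mer peptide tiles fused after GFP, lentivirally expressed, FACS-sorted into six equal bins by GFP/DsRed ratio, decoded by Illumina sequencing, PSI is the read-weighted mean bin number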
# cond: treatment: DMSO; c terminus: a fixed tail appended
observation-type: protein stability index

The examples below pair each entry with its known result.
>>> value("DTVTIPVPSEEPQESDQTEEHESG [IQUB]")
5.54
>>> value("EQHDLVYGDWTSGENSDGCYEHFA [CLPTM1]")
4.53
>>> value("SMDIARGLMVTCGTDRIVKIWDMT [WDFY1]")
2.25
>>> value("RIHTEEKPYKCQQCDKRFRWSSDL [ZNF75A]")
3
>>> value("IIHETAVGMNFLHCMAPPLLHLDL [RIPK4]")
2.6

Request: Recorded protein stability index of AHIHLQQLTCFSITCSSTMSYSCC [KRT34] , please.
Response: 3.37

Request: Please give the measured protein stability index for this sequence: TSLRLVFLLAFGLMIIVCIDQWKN [RETREG3]
Response: 2.21

Request: // returns reported protein stability index for input YIRCQKEVGKSFERHKLKRQDADA [SMG5]
Response: 3.46

Request: Name the recorded protein stability index for VLDLSKSLSAALLTAALLTFDTGC [POMT2] .
Response: 3.38

Request: Could you tell me which protein stability index is on file for NSLFIDRQKCMAHRTRYPTILQLA [TEKT4] ?
Response: 2.23

Request: Could you share which protein stability index value was measured for AQTPPRPGPPSAPPPPPKEGHQEG [SCNN1D] ?
Response: 5.73

Request: Return reported protein stability index; argument: KEPAEFNGDGAFLHDNHEQMPTEI [ZNF649]
Response: 5.11

Request: Returns the measured protein stability index for the input sequence. Input: LHRESSNFDSIYICPSTFACAQLA [HDAC6]
Response: 2.15

Request: Recorded protein stability index for KDEDLDLFPASPTREAHRESSVPV [FBF1] , please?
Response: 5.11

Request: I have this sequence here, DKLGELSDKIGSTIDDTISKFRRK [CLINT1] , and I need its recorded protein stability index.
Response: 3.32

Request: Returns the measured protein stability index for the input sequence. Input: TAGPITGLVYRLNRFRVEISFHFE [TRIM43]
Response: 3.02

Request: So what's the measured protein stability index for this one? NVPPIPVETLVKKKIPIISNAMLV [ACSBG2]
Response: 2.4

Request: Returns the measured protein stability index for the input sequence. Input: ESGVHGALLALDENFDHNTLALIL [PPFIA4]
Response: 2.75

Request: Record request: protein stability index value, item RKVCVGGKRRKDEISVDSLDFSKK [PPP2R2B]
Response: 4.33

Request: Requested read-out: protein stability index. Entry: REDKATIKCETSPPSSPRTLRLEK [PPFIA4]
Response: 5.51

Request: Which protein stability index value is on record for PLESAFDHEDFTGSSSLGFTSSPS [FCHO1] ?
Response: 4.81

Request: I am curious: what protein stability index value has been reported for VINQADVRNNRSIIKQLKDVFERD [PLD5] ?
Response: 3.2

Request: For the sequence shown here, QINRLQKLIDRLEKKDLKLEPPEE [NECAB1] , give the reported protein stability index.
Response: 3.22

Request: // protein stability index lookup, key: RTNLPIFKLKESCVRRRYSDFEWL [SNX12]
Response: 2.27

Request: What does the record list as protein stability index for AYIQCQFEDLNKRKDTKEIYTHFT [GNAI1] ?
Response: 2.14

Request: Query (sequence): LERQNQEYQVLLDVKARLEGEIAT [KRT36] ; field requested: protein stability index
Response: 3.93

Request: Which protein stability index reading was recorded for the sequence HRLGSPYGHCTAGGEGVEVELLHN [SCNN1D] ?
Response: 3.9
